Data provenance is the Immune Epitope Database (IEDB).

molecular target: HLA-B*58:01; assay: IEDB peptide-MHC binding, purified MHC/direct/fluorescence; filed as Kd, often an IC50 or EC50 that approximates it; bounds were set here for any values at or beyond the usual limits of such assays; conditions: source organism: Cowpox virus
observation-type: Kd

Requested field: Kd. Item: RHDITGFIL
≥ 20 µM

###

target: HLA-B*15:01; assay: IEDB peptide-MHC binding, purified MHC/direct/fluorescence; filed as Kd, often an IC50 or EC50 that approximates it; bounds were set here for any values at or beyond the usual limits of such assays; settings: source organism: Influenza A virus (A/Wisconsin/4755/1994(H1N1))
observation-type: Kd

Requested field: Kd. Item: DPKKTGGPI
≥ 20 µM

###

target: HLA-B*51:01; assay: IEDB peptide-MHC binding, purified MHC/direct/fluorescence; filed as Kd, often an IC50 or EC50 that approximates it; bounds were set here for any values at or beyond the usual limits of such assays; details: source organism: West Nile virus strain PTRoxo
observation-type: Kd

# value lookup — system HLA-B*51:01, readout Kd, item MTRGLLGSY
≥ 20 µM

###

target: HLA-B*58:01; assay: IEDB peptide-MHC binding, purified MHC/direct/fluorescence; filed as Kd, often an IC50 or EC50 that approximates it; bounds were set here for any values at or beyond the usual limits of such assays; conditions: source organism: Influenza A virus (A/tern/Australia/1/04(H2N5))
pKd: −log10 of the molar value.
observation-type: pKd

# value lookup — system HLA-B*58:01, readout pKd, item LLTEVETYV
≤ 4.70

###

biological target: HLA-B*39:01; assay: IEDB peptide-MHC binding, purified MHC/competitive/fluorescence; filed as Kd, often an IC50 or EC50 that approximates it; bounds were set here for any values at or beyond the usual limits of such assays; settings: source organism: Coxiella burnetii RSA 493
observation-type: pKd
Kindly note that pKd refers to -log10 of the concentration in mol/L and answer with the value alone.

Requested field: pKd. Item: EIYRTLYGL
5.56

###

target: HLA-B*15:42; experiment: IEDB peptide-MHC binding, purified MHC/competitive/fluorescence; filed as Kd, often an IC50 or EC50 that approximates it; bounds were set here for any values at or beyond the usual limits of such assays; conditions: source organism: Vibrio vulnificus YJ016
pKd: −log10 of the molar value.
observation-type: pKd

Requested field: pKd. Item: YLRKHIRAL
≤ 5.30

###

biological target: HLA-A*02:06; test: IEDB peptide-MHC binding, purified MHC/competitive/radioactivity; filed as Kd, often an IC50 or EC50 that approximates it; bounds were set here for any values at or beyond the usual limits of such assays; details: source organism: Dengue virus 2 Jamaica/1409/1983
observation-type: Kd (nM)
Response body: numeric value in nM, unit text excluded.

Answered examples (2):
INSERT INTO results (macromolecule_sequence, observation_type, value_unit, value) VALUES
  ('LVAGGLLTV', 'Kd', 'nM', 3.95),
  ('TMTDDIGMGV', 'Kd', 'nM', 5.64);

Proceed to the following item.
Requested field: Kd. Item: YVVIAILTV
12.4

###

biological target: HLA-B*07:02; experiment: IEDB peptide-MHC binding, purified MHC/competitive/radioactivity; filed as Kd, often an IC50 or EC50 that approximates it; bounds were set here for any values at or beyond the usual limits of such assays; details: source organism: Dengue virus 4 Philippines/H241/1956
observation-type: Kd (nM)
Response body: numeric value in nM, unit text excluded.

INSERT INTO assay_data (macromolecule_sequence, value) VALUES
  ('NPGFALLAGF', 233);

Proceed to the following item.
# value lookup — system HLA-B*07:02, readout Kd, item SPARLASAIL
5.75
